Data origin: BindingDB's records for doi:10.1021/acschembio.5b00398

target: Cyclin-dependent kinase 2 [F80T] (Homo sapiens, UniProt P24941, F80T); assay: EMSA
Metric: IC50 (µM)
Supply the numeric figure in µM, leaving out any unit text.

Data request: What measured IC50 goes with CC(=O)Nc1cc(Oc2ccc3c(C(=O)Nc4ccc(CN5CCN(C)CC5)c(C(F)(F)F)c4)cccc3c2)ncn1 ?
Data returned: 7.1

---

target: Cyclin-dependent kinase 2 [F80M] (Homo sapiens, UniProt P24941, F80M); test: EMSA
pIC50: −log10 of the molar value.
Metric: pIC50

Data request: What measured pIC50 goes with CC(=O)Nc1cc(Oc2ccc3c(C(=O)Nc4ccc(CN5CCN(C)CC5)c(C(F)(F)F)c4)cccc3c2)ncn1 [K03859 (2)] ?
Data returned: < 5.00

---

target: Cyclin-dependent kinase 2 [C118L] (Homo sapiens, UniProt P24941, C118L); assay: EMSA
Metric: IC50

Data request: What measured IC50 goes with CC(=O)Nc1cc(Oc2ccc3c(C(=O)Nc4ccc(CN5CCN(C)CC5)c(C(F)(F)F)c4)cccc3c2)ncn1 ?
Data returned: > 10 µM

---

target: Cyclin-dependent kinase 2 [C118I] (Homo sapiens, UniProt P24941, C118I); experiment: EMSA
Metric: IC50

Data request: What measured IC50 goes with CC(=O)Nc1cc(Oc2ccc3c(C(=O)Nc4ccc(CN5CCN(C)CC5)c(C(F)(F)F)c4)cccc3c2)ncn1 ?
Data returned: > 10 µM

---

biological target: Cyclin-dependent kinase 2 [C118L,A144C] (Homo sapiens, UniProt P24941, A144C/C118L); assay: EMSA
Metric: IC50

Data request: What measured IC50 goes with CC(=O)Nc1cc(Oc2ccc3c(C(=O)Nc4ccc(CN5CCN(C)CC5)c(C(F)(F)F)c4)cccc3c2)ncn1 ?
Data returned: > 10 µM
